Listed next: entries and their corresponding % inhibition of CsA binding to Cyclophilin A.
- tested system: Cyclophilin A (Homo sapiens)
- Construct: made in house
- Sequence (P62937 whole entry, species assumed): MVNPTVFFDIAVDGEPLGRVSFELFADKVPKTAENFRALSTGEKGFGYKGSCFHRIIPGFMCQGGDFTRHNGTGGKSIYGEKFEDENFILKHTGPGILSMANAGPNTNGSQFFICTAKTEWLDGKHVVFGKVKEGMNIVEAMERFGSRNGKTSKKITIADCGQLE
- protocol description: biochemical
- Type: binding
- Description: This protocol utilizes Perkin Elmers AlphaLISA technology platform to detect cyclosporine analogues by measuring the inhibition of binding of biotinylated Cyclosporin A to FLAG tagged Cyclophilin A. Add 20 uL of 6 nM Biotinylated CsA working stock to each well of the 96-well plate. Add 1 uL of test compound (100% DMSO) to each well of the plate using the Janus MTD head and P20 tips (except control wells). […]
Square brackets hold non-standard residues; d marks the D form. Peptide text beside a SMILES is read from it. MeBmt = C/C=C/C[C@@H](C)[C@@H](O)[C@H](NC)C(=O)O; NMeF = CN[C@@H](Cc1ccccc1)C(=O)O; NMeI = CC[C@H](C)[C@H](NC)C(=O)O; NMeL = CN[C@@H](CC(C)C)C(=O)O; NMeV = CN[C@H](C(=O)O)C(C)C; NMeA = CN[C@@H](C)C(=O)O; dNMeA = CN[C@H](C)C(=O)O; Abu = CC[C@H](N)C(=O)O; Sar = CNCC(=O)O
Your answer is read as %, so omit the unit and give the number.

Recorded % inhibition of CsA binding to Cyclophilin A, per entry:
>  <compound>
C/C=C/C[C@@H](C)[C@@H](O)[C@H]1C(=O)N[C@@H](CC)C(=O)N(C)CC(=O)N(C)[C@H](C)C(=O)N[C@@H](C(C)C)C(=O)N(C)[C@@H](CC(C)C)C(=O)N[C@@H](CC(C)C)C(=O)N[C@H](C)C(=O)N(C)[C@@H](CC(C)C)C(=O)N(C)[C@@H](CC(C)C)C(=O)N(C)[C@@H](C(C)C)C(=O)N1C [C47] (cyclo([MeBmt][Abu][Sar][dNMeA]V[NMeL]L[dA][NMeL][NMeL][NMeV]))

>  <readout value>
95.71

$$$$
>  <compound>
C/C=C/C[C@@H](C)[C@@H](O)[C@H]1C(=O)N[C@@H](CC)C(=O)N(C)CC(=O)N(C)[C@@H](Cc2ccccc2)C(=O)N[C@@H](C(C)C)C(=O)N(C)CC(=O)N[C@@H](C)C(=O)N[C@H](C)C(=O)N(C)[C@@H](CC(C)C)C(=O)N(C)[C@@H](CC(C)C)C(=O)N(C)[C@@H](C(C)C)C(=O)N1C [C28] (cyclo([MeBmt][Abu][Sar][NMeF]V[Sar]A[dA][NMeL][NMeL][NMeV]))

>  <readout value>
98.94

$$$$
>  <compound>
C/C=C/C[C@@H](C)[C@@H](O)[C@H]1C(=O)N[C@@H](CC)C(=O)N(C)CC(=O)N(C)[C@H](C)C(=O)N[C@@H](CC(C)C)C(=O)N(C)[C@@H](C)C(=O)N[C@@H](C)C(=O)N[C@H](C)C(=O)N(C)[C@@H](CC(C)C)C(=O)N(C)[C@@H](CC(C)C)C(=O)N(C)[C@@H](C(C)C)C(=O)N1C [C11] (cyclo([MeBmt][Abu][Sar][dNMeA]L[NMeA]A[dA][NMeL][NMeL][NMeV]))

>  <readout value>
93.73

$$$$
>  <compound>
C/C=C/C[C@@H](C)[C@@H](O)[C@H]1C(=O)N[C@@H](CC)C(=O)N(C)CC(=O)N(C)CC(=O)N[C@@H](C(C)C)C(=O)N(C)CC(=O)N[C@@H](C)C(=O)N[C@H](C)C(=O)N(C)[C@@H](CC(C)C)C(=O)N(C)[C@@H](CC(C)C)C(=O)N(C)[C@@H](C(C)C)C(=O)N1C [C29] (cyclo([MeBmt][Abu][Sar][Sar]V[Sar]A[dA][NMeL][NMeL][NMeV]))

>  <readout value>
98.77

$$$$

Lab note: next compound to report on.
% inhibition of CsA binding to Cyclophilin A lookup needed for C/C=C/C[C@@H](C)[C@@H](O)[C@H]1C(=O)N[C@@H](CC)C(=O)N(C)CC(=O)N(C)[C@@H]([C@@H](C)CC)C(=O)N[C@@H](C(C)C)C(=O)N(C)CC(=O)N[C@@H](C)C(=O)N[C@H](C)C(=O)N(C)[C@@H](CC(C)C)C(=O)N(C)[C@@H](CC(C)C)C(=O)N(C)[C@@H](C(C)C)C(=O)N1C [C25] (cyclo([MeBmt][Abu][Sar][NMeI]V[Sar]A[dA][NMeL][NMeL][NMeV])) , thanks.
99.63

Numbers sourced from patent US10039839B2.
